Where do the numbers come from? From patent US20230041996A1.

Consider the following compounds; for each one, report its Relative fold of histamine release in vitro.
system: rat peritoneal mast cells; test: In vitro histamine release in rat peritoneal mast cells (histamine ELISA); type: cell-based; details: test compound final concentration 10 μM, 15 min at 37° C., relative to PBS buffer (1.00)
Square brackets hold non-standard residues; d marks the D form. Peptide text beside a SMILES is read from it. * marks the point of attachment. Cys(free,S-linked) = N[C@@H](CS*)C(=O)O; d(hLeu) = CC(C)CC[C@@H](N)C(=O)O; dTle = CC(C)(C)[C@@H](N)C(=O)O
Please reply with the value in numeric form only.

Query string: Consider the compound CC(=O)N[C@H](CSSC[C@H](N)C(=O)O)C(=O)N[C@H](CCCNC(=N)N)C(=O)N[C@H](CCCNC(=N)N)C(=O)N[C@H](CCC(C)C)C(=O)N[C@H](CCCNC(=N)N)C(=O)N[C@H](CO)C(=O)N[C@H](CCCNC(=N)N)C(N)=O [Compound 33, Ac-c(C)-r-r-(D-hLeu)-r-s-r-NH2] (Ac-[dC](Cys(free,S-linked))[dR][dR][d(hLeu)][dR][dS][dR]-NH2) and give its measured Relative fold of histamine release in vitro.
Result string: 2.50

Query string: Consider the compound CC(=O)N[C@H](CSSC[C@H](N)C(=O)O)C(=O)N[C@H](CCCNC(=N)N)C(=O)N[C@H](CCCNC(=N)N)C(=O)N[C@@H](C(=O)N[C@H](CCCNC(=N)N)C(=O)N[C@H](CO)C(=O)N[C@H](CCCNC(=N)N)C(N)=O)C(C)(C)C [Compound 37, Ac-c(C)-r-r-(D-Tle)-r-s-r-NH2] (Ac-[dC](Cys(free,S-linked))[dR][dR][dTle][dR][dS][dR]-NH2) and give its measured Relative fold of histamine release in vitro.
Result string: 2.23

Query string: Consider the compound CC(=O)N[C@H](CSSC[C@H](N)C(=O)O)C(=O)N[C@H](CCCNC(=N)N)C(=O)N[C@H](CCCNC(=N)N)C(=O)N[C@H](CO)C(=O)N[C@H](CCCNC(=N)N)C(=O)NCC(=O)N[C@H](CCCNC(=N)N)C(N)=O [Compound 22, Ac-c(C)-r-r-s-r-G-r-NH2] (Ac-[dC](Cys(free,S-linked))[dR][dR][dS][dR]G[dR]-NH2) and give its measured Relative fold of histamine release in vitro.
Result string: 1.63

Query string: Consider the compound CC(=O)N[C@H](CSSC[C@H](N)C(=O)O)C(=O)N[C@H](Cc1c[nH]cn1)C(=O)N[C@H](CCCNC(=N)N)C(=O)N[C@H](CCCNC(=N)N)C(=O)N[C@H](CCCNC(=N)N)C(=O)N[C@H](CO)C(=O)N[C@H](CCCNC(=N)N)C(N)=O [Compound 10, Ac-c(C)-h-r-r-r-s-r-NH2] (Ac-[dC](Cys(free,S-linked))[dH][dR][dR][dR][dS][dR]-NH2) and give its measured Relative fold of histamine release in vitro.
Result string: 3.66

Query string: Consider the compound CC(=O)N[C@H](CSSC[C@H](N)C(=O)O)C(=O)N[C@H](CCCNC(=N)N)C(=O)N[C@H](CCCNC(=N)N)C(=O)N[C@H](CO)C(=O)N[C@H](CCCNC(=N)N)C(=O)N[C@H](CO)C(=O)N[C@H](CCCNC(=N)N)C(N)=O [Compound 25, Ac-c(C)-r-r-s-r-s-r-NH2] (Ac-[dC](Cys(free,S-linked))[dR][dR][dS][dR][dS][dR]-NH2) and give its measured Relative fold of histamine release in vitro.
Result string: 1.65

Query string: Consider the compound CC(=O)N[C@H](CSSC[C@H](N)C(=O)O)C(=O)N[C@H](CCCNC(=N)N)C(=O)N[C@H](CCCNC(=N)N)C(=O)N[C@@H](C(=O)N[C@H](CCCNC(=N)N)C(=O)N[C@H](C)C(=O)N[C@H](CCCNC(=N)N)C(N)=O)C(C)(C)C [Compound 18, Ac-c(C)-r-r-(D-Tle)-r-a-r-NH2] (Ac-[dC](Cys(free,S-linked))[dR][dR][dTle][dR][dA][dR]-NH2) and give its measured Relative fold of histamine release in vitro.
Result string: 1.24
